# tested.on: MAP kinase-interacting serine/threonine-protein kinase 2 (Homo sapiens) (UniProt Q9HBH9)
# Sequence (Q9HBH9 whole entry, looked up): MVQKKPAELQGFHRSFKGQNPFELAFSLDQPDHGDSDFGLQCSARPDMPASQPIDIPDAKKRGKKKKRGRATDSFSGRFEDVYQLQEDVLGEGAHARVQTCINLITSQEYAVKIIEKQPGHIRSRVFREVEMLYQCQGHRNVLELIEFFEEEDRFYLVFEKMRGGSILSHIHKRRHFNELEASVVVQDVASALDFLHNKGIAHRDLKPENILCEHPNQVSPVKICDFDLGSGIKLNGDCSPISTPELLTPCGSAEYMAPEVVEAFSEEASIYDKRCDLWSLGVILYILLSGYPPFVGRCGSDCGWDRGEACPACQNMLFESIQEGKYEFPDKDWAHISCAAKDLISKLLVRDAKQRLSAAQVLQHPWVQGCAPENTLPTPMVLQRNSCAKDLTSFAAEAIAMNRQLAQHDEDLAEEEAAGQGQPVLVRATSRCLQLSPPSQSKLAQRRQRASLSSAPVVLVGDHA
# setup.conditions: at 1 µM
# Description: GSK_PKIS: MNK2 mean inhibition at 1 uM [Nanosyn]
I would appreciate it if you labelled entries Satisfied when inhibition is 6% or higher, otherwise Not satisfied.

                       smiles_representation          label
 0  CN(C)CCNC(=O)Nc1ccc(N(C)c2ccnc(Nc3ccc(CS(C)(=O)=O)cc3)n2)cc1  Not satisfied
 1  CCOc1ccc2c(-c3ccnc(Nc4cc(OC)cc(C(F)(F)F)c4)n3)cnn2n1  Not satisfied
 2  NS(=O)(=O)c1ccc(N/N=C2\C(=O)Nc3ccc(C(=O)NCc4ccncc4)cc32)cc1      Satisfied
 3  CCCNc1cccc(-n2ncc3c(N/N=C/c4ccncc4)ncnc32)c1      Satisfied
 4  Fc1cccc(COc2ccc(Nc3ncncc3C#Cc3ccccc3)cc2Cl)c1      Satisfied
 5  N#Cc1ccc2c(-c3ccnc(NC4CC4)n3)c(-c3ccc(F)cc3)nn2c1  Not satisfied
 6  COc1cc(N2CCN(C(C)C)CC2)ccc1Nc1nc(Nc2cccc(F)c2C(=O)O)c2cc[nH]c2n1  Not satisfied
 7  CC1(C)CC(n2cnc(-c3ccc(F)cc3)c2-c2ccnc(N)n2)CC(C)(C)N1  Not satisfied
 8  CS(=O)(=O)Nc1ccc(-c2ccc3c(NC(=O)C4CC4)n[nH]c3c2)cc1  Not satisfied
 9       COc1cc(Nc2ncc(-c3ccccc3)o2)cc(OC)c1      Satisfied
10           CNC(=O)c1cncc(/C=C/c2ccccc2C)c1      Satisfied
11  CNC(=O)c1sc(-n2cnc3cc(OC)c(OC)cc32)cc1OCc1ccccc1C(F)(F)F  Not satisfied
12  CCN1CCC(C(=O)Nc2n[nH]c3nnc(-c4cccc(F)c4F)cc23)CC1  Not satisfied

====

# tested.on: Ribosomal protein S6 kinase alpha-5 (Homo sapiens)
# setup.conditions: at 0.1 µM
measurement.kind: inhibition (%)

In [3]: df
Out[3]:
                                    molecule  recorded_measurement
 0  CN1CCC(n2cnc(-c3ccc(F)cc3)c2-c2ccnc(NCCO)n2)CC1                  3.35
 1     COc1cccc(Nc2nccc(-c3cnn4ncccc34)n2)c1                  1.02
 2       COc1cc(Nc2ncc(-c3ccccc3)o2)cc(OC)c1                   2.3
 3  O=C(O[C@H]1CN[C@H](C#Cc2cc3ncnc(Nc4ccc(OCc5cccc(F)c5)c(Cl)c4)c3s2)C1)N1CCOCC1                 -0.86
 4  CC(C)c1ccc(-c2cc(-c3c[nH]nc3-c3ccccn3)ccn2)cc1                  1.59
 5    O=C(Nc1n[nH]c2nnc(-c3cccnc3)cc12)C1CC1                 -1.47
 6  COc1cc2c(cc1Nc1nc(Nc3cccc(F)c3C(N)=O)c3cc[nH]c3n1)N(C(=O)CN1CCN(C(C)C)CC1)CC2                   1.4
 7  NC(=O)c1ccc2c(-c3ccnc(NCCCO)n3)c(-c3ccc(F)cc3)nn2c1                  11.4
 8  N#Cc1ccc2c(-c3ccnc(NC4CC4)n3)c(-c3ccc(F)cc3)nn2c1                  0.77
 9  CC1=C(C(=O)Nc2ccc3[nH]nc(C)c3c2)C(c2ccc(C(F)(F)F)cc2)CC(=O)N1 (stereo not drawn)                  6.02
10  CN(c1ccc(NC(=O)NCCN2CCOCC2)cc1)c1ccnc(Nc2ccc(CS(C)(=O)=O)cc2)n1                  3.04
11           CNC(=O)c1cncc(/C=C/c2ccccc2C)c1                  3.42
12  Cc1c2ccc(N(C)c3ccnc(Nc4cccc(S(N)(=O)=O)c4)n3)cc2nn1C                   2.9
13  O=C(O[C@H]1CN[C@H](C#Cc2cc3ncnc(Nc4ccc5c(ccn5Cc5cc(F)ccc5F)c4)c3s2)C1)N1CCOCC1                 -1.77
14  CS(=O)(=O)Nc1ccc(-c2ccc3c(NC(=O)C4CC4)n[nH]c3c2)cc1                  3.35
15  COC(=O)Nc1nc2cc(Oc3ccc(NC(=O)Nc4ccccc4)cc3)ccc2[nH]1                   2.4
16  CCOc1ccc2c(-c3ccnc(Nc4cc(OC)cc(C(F)(F)F)c4)n3)cnn2n1                   1.4
17    c1cnn2ncc(-c3ccnc(NCCCN4CCOCC4)n3)c2c1                  6.61
18  COc1cccc(-n2ncc3c(N/N=C/c4ccc(C(=O)NCCN(C)C)cc4)ncnc32)c1                  3.26
19      Cc1cc(O)cc(C)c1/C=C/c1cncc(C(N)=O)c1                  1.68
20  COc1c(C(N)=O)cc(-c2ccc(Cl)cc2)cc1-c1ccc(S(N)(=O)=O)cc1                  2.38
21  Fc1cccc(COc2ccc(Nc3ncncc3C#Cc3ccccc3)cc2Cl)c1                  3.88
22                 Cn1c(-c2nonc2N)nc2cnccc21                  32.7
